Origin of the recorded values: patent US20190300882A1

Tested on: KELLY cells
Test: Secondary validation screen of synthetic lethal miRNAs with low dose IC30 chemotherapy, cell viability
Format: cell-based
Details: miRNA mimic + low dose IC30 vincristine
What Secondary screen Viability (% of control) Kelly VCR was measured for each of the following?

Query: Secondary screen Viability (% of control) Kelly VCR; subject: hsa-miR-380-3p (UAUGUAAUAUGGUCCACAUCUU; chemistry not given here; listed as Homo sapiens)
76 % of control

Query: Secondary screen Viability (% of control) Kelly VCR; subject: hsa-miR-3181 (AUCGGGCCCUCGGCGCCGG; chemistry not given here; listed as Homo sapiens)
96 % of control

Query: Secondary screen Viability (% of control) Kelly VCR; subject: hsa-miR-3924 (AUAUGUAUAUGUGACUGCUACU; chemistry not given here; listed as Homo sapiens)
57 % of control

Query: Secondary screen Viability (% of control) Kelly VCR; subject: hsa-miR-34c-5p (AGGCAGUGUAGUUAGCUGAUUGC; chemistry not given here; listed as Homo sapiens)
18 % of control

Query: Secondary screen Viability (% of control) Kelly VCR; subject: hsa-miR-3646 (AAAAUGAAAUGAGCCCAGCCCA; chemistry not given here; listed as Homo sapiens)
72 % of control

Query: Secondary screen Viability (% of control) Kelly VCR; subject: hsa-miR-100-5p (AACCCGUAGAUCCGAACUUGUG; chemistry not given here; listed as Homo sapiens)
43 % of control

* * *

System: SK-N-DZ MYCN-amplified neuroblastoma cell line
Test: Secondary validation screen of synthetic lethal miRNAs with low dose IC30 chemotherapy, additional cell line
Format: cell-based
Conditions: miRNA mimic + vehicle
Readout Type: Additional cell line Viability (% of control) SKNDZ Vehicle

Query: Additional cell line Viability (% of control) SKNDZ Vehicle; subject: hsa-miR-485-3p (guide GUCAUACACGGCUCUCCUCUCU; chemistry not given here; listed as Homo sapiens)
113 % of control

Query: Additional cell line Viability (% of control) SKNDZ Vehicle; subject: hsa-miR-3646 (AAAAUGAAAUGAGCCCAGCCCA; chemistry not given here; listed as Homo sapiens)
101 % of control

Query: Additional cell line Viability (% of control) SKNDZ Vehicle; subject: hsa-miR-449a (guide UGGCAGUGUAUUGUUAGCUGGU; chemistry not given here; listed as Homo sapiens)
71 % of control

Query: Additional cell line Viability (% of control) SKNDZ Vehicle; subject: hsa-miR-34a-5p (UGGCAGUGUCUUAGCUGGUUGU; chemistry not given here; listed as Homo sapiens)
92 % of control

Query: Additional cell line Viability (% of control) SKNDZ Vehicle; subject: hsa-miR-3151 (GGUGGGGCAAUGGGAUCAGGU; chemistry not given here; listed as Homo sapiens)
87 % of control

Query: Additional cell line Viability (% of control) SKNDZ Vehicle; subject: hsa-miR-100-5p (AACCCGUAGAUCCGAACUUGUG; chemistry not given here; listed as Homo sapiens)
98 % of control

Query: Additional cell line Viability (% of control) SKNDZ Vehicle; subject: hsa-miR-1321 (CAGGGAGGUGAAUGUGAU; chemistry not given here; listed as Homo sapiens)
64 % of control

Query: Additional cell line Viability (% of control) SKNDZ Vehicle; subject: hsa-miR-515-3p (guide GAGUGCCUUCUUUUGGAGCGUU; chemistry not given here; listed as Homo sapiens)
85 % of control

Query: Additional cell line Viability (% of control) SKNDZ Vehicle; subject: hsa-miR-3924 (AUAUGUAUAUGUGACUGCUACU; chemistry not given here; listed as Homo sapiens)
85 % of control
